- Tested on: NCI-H522 lung
- ASSAY_TEXT: NCI-60 one-dose screen, 48 h (100 = growth as untreated, 0 = no growth, -100 = all killed)
- CONDITION_SET: 10 µM unless noted
- Protocol: Growth inhibition of the NCI-H522 human Non-Small Cell Lung tumor cell line is measured as a screen for anti-cancer activity. Cells are grown in 96 well plates and exposed to the test compound for 48 hours. Compounds are tested at a single concentration, which is 10^-5 M for most compounds. The reported endpoint is percent growth (GI% or GIPRCNT), where numbers from 0 - 100% represent growth inhibition, and numbers from -100% - 0 represent cell death. […]
Compounds without any hit were thinned out: in the full panel of roughly 83,000, 20% have a hit.
Task for the reader: assign each of the following molecules its reported growth.
Give the value, in units of %, as a plain number.

Can you share its growth? I mean this molecule: "O=C(NCc1cn(Cc2cccc(Oc3ccccc3)c2)nn1)c1cccnc1NCc1ccc(Cl)cc1"
20.8

Can you share its growth? I mean this molecule: "CC(=[N-])N1CCC[C@@H](Nc2c3ccccc3nc3ccccc23)C1.[Cl][Pt].[NH-]CCC[NH-]"
-18.5

Can you share its growth? I mean this molecule: O=C1CSC(c2ccccc2Cl)N1c1nnc(Cn2cnnc2)o1 (stereo not given)
101

Can you share its growth? I mean this molecule: "C=C1C(=O)O[C@H]2[C@H]1CC/C(COC(=O)/C=C/C(=O)NCc1ccc(Cn3c(=O)sn(-c4ccccc4)c3=O)cc1)=C\CC[C@@]1(C)O[C@@H]21"
-80.1

Can you share its growth? I mean this molecule: "CCc1nc2ccccc2[nH]1"
103

---

- Tested on: SF-268 CNS
- ASSAY_TEXT: NCI-60 one-dose screen, 48 h
- CONDITION_SET: 10 µM unless noted
About 83,000 compounds went through this panel and 20% of them were active in at least one assay; those are over-represented in the sample as a whole. The source made the active and inactive calls. Rule for the calls: active = growth percent below 10; inactive = the rest.
Would you mind answering with one of these outcomes? true (1) (active), false (0) (inactive)

What is the recorded call for this compound in the test? "O=C(NC(=S)Nc1ccc(-c2nc3ccccc3[nH]2)cc1)c1ccc2ccccc2c1"
false (0)

What is the recorded call for this compound in the test? O=C(c1ccccc1)c1ccc(N2C(=O)C3C4c5ccccc5C(/C=C/C(=O)c5ccccn5)(c5ccccc54)C3C2=O)cc1 (stereo unspecified)
false (0)

What is the recorded call for this compound in the test? CCO/C=N/C1=C(C#N)C(c2ccc(OC)cc2)c2c(c3ccccc3n(C)c2=O)O1 (stereo unspecified)
false (0)

What is the recorded call for this compound in the test? CN1C[C@@H](c2ccc(Cl)cc2)[C@]2(NC(=S)N(c3ccc(F)c(Cl)c3)C2=O)[C@@]12C(=O)NC1C=CC(Cl)=C[C@H]12 (stereo partly specified)
false (0)

What is the recorded call for this compound in the test? "CC(C)(C)c1ccc(C(=O)Nc2sc3c(c2C(N)=O)CCC(=O)C3)cc1"
true (1)

What is the recorded call for this compound in the test? "COc1ccc(Oc2nc(Nc3ccc(N4CCOCC4)nc3)ncc2NC(=O)c2cc(OC)cc(OC)c2)cc1"
false (0)

---

- Tested on: HCT-116 colon
- ASSAY_TEXT: NCI-60 one-dose screen, 48 h (100 = growth as untreated, 0 = no growth, -100 = all killed)
- CONDITION_SET: 10 µM unless noted
The panel holds about 83,000 compounds, 20% with a hit somewhere; the sample as a whole holds those more often.
Task for the reader: assign each of the following compounds its reported growth.
Give the value, in units of %, as a plain number.

Can you share its growth? I mean this compound: "Cc1cccc(-c2cc(O)c(C(=O)N3CCOCC3)s2)c1"
27.7

Can you share its growth? I mean this compound: "CCCCN1CCN(c2ccc3nc(-c4ccc5nc(-c6cc(OC)c(OC)c(OC)c6)[nH]c5c4)[nH]c3c2)CC1"
41.1

Can you share its growth? I mean this compound: "O=C(O)c1ccc(CO)o1"
103

Can you share its growth? I mean this compound: "Cn1ccnc1C(=O)/C=C/c1ccc(C(=O)Nc2ccc(S(F)(F)(F)(F)F)cc2)cc1"
3.62

Can you share its growth? I mean this compound: "Nc1c(C(=O)Nc2ccccc2)sc2nc3c(cc12)CCCCCC3"
2.39

Can you share its growth? I mean this compound: "Cc1cc(C)on1"
110
